Data credit: ChEMBL document CHEMBL3272234

organism: Rattus norvegicus; assay: Analgesic activity in Charles River rat by tail flick test relative to morphine; assay type: functional
What Ratio was measured for each of the following?
Would you mind answering with just the numeric figure?

# Ratio of "C[C@@]12CCCCC(Cc3ccc(OC(=O)C4CC4)cc31)[C@@H]2N.Cl" = 0.81

# Ratio of "CC[C@@]12CC=CCC(Cc3ccc(OC)cc31)[C@@H]2N.Cl" = 1.05

# Ratio of Br.C[C@@]12Cc3ccccc3CC(Cc3ccc(O)cc31)C2N (some centres not stated) = 0.35

# Ratio of "COc1ccc2c(c1)[C@@]1(C)CC=CCC(C2)[C@@H]1N.Cl" = 0.27

# Ratio of CN1CC[C@]23c4c5ccc(O)c4O[C@H]2[C@@H](O)C=C[C@H]3[C@H]1C5 [MORPHINE] = 1

# Ratio of "CC[C@@]12CC=CCC(Cc3ccc(O)cc31)[C@@H]2N" = 2.53

# Ratio of "COc1ccc2c(c1)[C@@]1(C)CCCCCC(C2)[C@@H]1[N+](C)(C)[O-].Cl" = 0.44

# Ratio of "Br.C[C@@]12CCCCC(Cc3ccc(O)cc31)[C@@H]2N" = 0.6

# Ratio of "COc1ccc2c(c1)[C@@]1(C)CCCCCC(C2)[C@@H]1N.Cl" = 0.44

# Ratio of COc1ccc2c(c1)[C@@]1(C)Cc3ccccc3CC(C2)C1N.Cl (some centres not stated) = 0.31

# Ratio of "C[C@@]12CC=CCC(Cc3ccc(O)cc31)[C@@H]2N.Cl" = 1.26

# Ratio of "CC(=O)Oc1ccc2c(c1)[C@@]1(C)CCCCC(C2)[C@@H]1N.Cl" = 0.44

---

test system: Rattus norvegicus; assay: Analgesic activity in po dosed Charles River rat by tail flick test; type: functional
ASSAY_ENDPOINT: ED50
Reply with the number, then its unit.

# ED50 of "CC[C@@]12CC=CCC(Cc3ccc(OC)cc31)[C@@H]2N.Cl" = 6.25 mg/kg

# ED50 of "COc1ccc2c(c1)[C@@]1(C)CC=CCC(C2)[C@@H]1N.Cl" = 6.25 mg/kg

# ED50 of "CC(=O)Oc1ccc2c(c1)[C@@]1(C)CCCCC(C2)[C@@H]1N.Cl" = 40 mg/kg

# ED50 of "COc1ccc2c(c1)[C@@]1(C)CCCCCC(C2)[C@@H]1[N+](C)(C)[O-].Cl" = 16.5 mg/kg

# ED50 of "C[C@@]12CCCCC(Cc3ccc(OC(=O)C4CC4)cc31)[C@@H]2N.Cl" = 16.5 mg/kg

# ED50 of "CC[C@@]12CC=CCC(Cc3ccc(O)cc31)[C@@H]2N" = 6.25 mg/kg

---

What log10 of ED50 was measured for each of the following?
system: Rattus norvegicus; assay: Analgesic activity in ip dosed Charles River rat by tail flick test; type: functional
# log10 transformed; quantity=ED50; unit=mg/kg

Rattus norvegicus log10 of ED50 of "CC(=O)Oc1ccc2c(c1)[C@@]1(C)CCCCC(C2)[C@@H]1N.Cl" is 1.00

Rattus norvegicus log10 of ED50 of COc1ccc2c(c1)[C@@]1(C)Cc3ccccc3CCC(C2)C1N.O=C(O)/C=C/C(=O)O (stereo partly drawn) is 1.40

Rattus norvegicus log10 of ED50 of CC[C@@]12Cc3ccccc3CC(Cc3ccc(OC)cc31)C2N.Cl (stereo partly drawn) is 1.70

Rattus norvegicus log10 of ED50 of "COc1ccc2c(c1)[C@@]1(C)CC=CCC(C2)[C@@H]1N(C)C.Cl" is 1.70

Rattus norvegicus log10 of ED50 of "CC[C@@]12CC=CCC(Cc3ccc(OC)cc31)[C@@H]2NC.I" is 1.40

Rattus norvegicus log10 of ED50 of "CCC(=O)O[C@](Cc1ccccc1)(c1ccccc1)[C@H](C)CN(C)C" is 1.02

Rattus norvegicus log10 of ED50 of Br.C[C@@]12Cc3ccccc3CCC(Cc3ccc(O)cc31)C2N (stereo partly drawn) is 1.40

Rattus norvegicus log10 of ED50 of "CC[C@@]12CC=CCC(Cc3ccc(OC)cc31)[C@@H]2N.Cl" is 0.62

Rattus norvegicus log10 of ED50 of "C[C@@]12CCCCC(Cc3ccc(OC(=O)C4CC4)cc31)[C@@H]2N.Cl" is 0.74

Rattus norvegicus log10 of ED50 of Br.C[C@@]12Cc3ccccc3CC(Cc3ccc(O)cc31)C2N (stereo partly drawn) is 1.10

Rattus norvegicus log10 of ED50 of "C[C@@]12CC=CCC(Cc3ccc(O)cc31)[C@@H]2N.Cl" is 0.80

Rattus norvegicus log10 of ED50 of "CC[C@@]12CC=CCC(Cc3ccc(O)cc31)[C@@H]2N" is 0.24

Rattus norvegicus log10 of ED50 of "COc1ccc2c(c1)[C@@]1(C)CCCCCC(C2)[C@@H]1N.Cl" is 1.00

Rattus norvegicus log10 of ED50 of "CC[C@@]12CC=CCC(Cc3ccc(OC)cc31)[C@@H]2N(C)C.Cl" is 1.70

Rattus norvegicus log10 of ED50 of COc1ccc2c(c1)[C@@]1(C)Cc3ccccc3CC(C2)C1N.Cl (stereo partly drawn) is 1.16

Rattus norvegicus log10 of ED50 of "Br.C[C@@]12CCCCC(Cc3ccc(O)cc31)[C@@H]2N" is 0.87

Rattus norvegicus log10 of ED50 of "COc1ccc2c(c1)[C@@]1(C)CC=CCC(C2)[C@@H]1N.Cl" is 1.22

Rattus norvegicus log10 of ED50 of "COc1ccc2c(c1)[C@@]1(C)CCCCCC(C2)[C@@H]1[N+](C)(C)[O-].Cl" is 1.00
